- target-of-assay: adenine binding rat receptor (Rattus norvegicus, UniProt Q7TN49)
- Construct: expressed in transfected cells; host or cells: CHO cells, transient, lipofectamine PLUS
- Sequence (Q7TN49 whole entry): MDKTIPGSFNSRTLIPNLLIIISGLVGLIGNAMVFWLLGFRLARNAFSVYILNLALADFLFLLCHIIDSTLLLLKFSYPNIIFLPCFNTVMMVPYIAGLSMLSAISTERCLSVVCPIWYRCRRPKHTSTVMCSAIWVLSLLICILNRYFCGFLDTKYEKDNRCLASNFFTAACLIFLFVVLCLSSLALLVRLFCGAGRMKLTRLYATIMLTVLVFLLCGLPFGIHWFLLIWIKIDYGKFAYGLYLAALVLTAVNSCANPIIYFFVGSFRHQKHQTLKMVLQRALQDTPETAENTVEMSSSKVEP
- method-description: [3H]adenine competition binding on CHO membranes transiently transfected
- test-context: transfected cells, 15 nM [3H]adenine, mean of n experiments
pIC50: −log10 of the molar value.
Listing of recorded pIC50 by entry.
recorded-metric: pIC50

# structure, value
measured = [
    ("Nc1ncnc2c1ncn2[C@@H]1O[C@H](CO)[C@@H](O)[C@H]1O", "~4.00"),
    ("O=c1ccn([C@@H]2O[C@H](CO)[C@@H](O)[C@H]2O)c(=O)[nH]1", "< 4.00"),
    ("Nc1nc2nc[nH]c2c(=O)[nH]1", "< 4.00"),
    ("O=c1[nH]cnc2nc[nH]c12", "< 4.00"),
]
